Just for reference, patent US7576091B2 is where these values come from.

Cyclin T - CDK9 (Homo sapiens, UniProt P50750) data, read-out IC50
Sequence (P50750 whole entry): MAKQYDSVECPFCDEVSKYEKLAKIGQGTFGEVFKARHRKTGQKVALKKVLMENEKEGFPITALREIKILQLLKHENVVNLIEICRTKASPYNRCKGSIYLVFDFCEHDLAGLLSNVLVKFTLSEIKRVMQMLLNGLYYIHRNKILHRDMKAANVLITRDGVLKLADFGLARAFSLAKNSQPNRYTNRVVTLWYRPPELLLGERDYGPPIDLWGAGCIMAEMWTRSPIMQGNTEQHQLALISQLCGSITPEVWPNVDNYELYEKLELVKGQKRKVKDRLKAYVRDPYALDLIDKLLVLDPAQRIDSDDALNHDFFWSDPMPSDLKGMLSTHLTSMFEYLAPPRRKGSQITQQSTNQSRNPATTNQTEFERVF
Sequence (O60563 whole entry partner): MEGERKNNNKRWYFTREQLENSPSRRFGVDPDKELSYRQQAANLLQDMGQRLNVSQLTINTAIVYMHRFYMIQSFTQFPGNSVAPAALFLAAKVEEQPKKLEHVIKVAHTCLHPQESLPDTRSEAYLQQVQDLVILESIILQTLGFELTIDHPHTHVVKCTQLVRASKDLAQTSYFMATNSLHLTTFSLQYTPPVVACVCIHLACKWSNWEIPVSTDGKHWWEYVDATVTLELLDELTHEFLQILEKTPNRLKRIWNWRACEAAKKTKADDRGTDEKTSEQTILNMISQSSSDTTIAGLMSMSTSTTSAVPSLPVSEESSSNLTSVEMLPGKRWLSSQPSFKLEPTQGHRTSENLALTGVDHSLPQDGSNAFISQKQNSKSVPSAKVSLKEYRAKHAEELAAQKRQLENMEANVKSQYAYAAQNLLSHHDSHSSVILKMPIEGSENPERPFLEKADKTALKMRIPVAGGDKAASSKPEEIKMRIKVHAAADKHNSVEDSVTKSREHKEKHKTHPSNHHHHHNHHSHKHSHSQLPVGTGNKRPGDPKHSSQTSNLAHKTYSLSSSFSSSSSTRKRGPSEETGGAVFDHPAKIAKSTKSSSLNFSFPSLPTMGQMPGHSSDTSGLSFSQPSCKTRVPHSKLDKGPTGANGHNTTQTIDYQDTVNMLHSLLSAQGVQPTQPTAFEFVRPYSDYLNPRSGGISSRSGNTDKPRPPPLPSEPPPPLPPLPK
The reply should be a number in µM, with the unit left off.

Here is how some molecules turned out for IC50.
>  <molecule>
Cc1nc2c(s1)-c1nc(Nc3cccc(O)c3)ncc1CC2 [Cpd 3]

>  <system name>
Cyclin T - CDK9 (Homo sapiens, UniProt P50750)

>  <assay endpoint>
IC50

>  <unit text>
µM

>  <numeric result>
0.013

$$$$
>  <molecule>
Nc1nc2c(s1)-c1nc(Nc3ccccc3)ncc1CC2 [Cpd 13]

>  <system name>
Cyclin T - CDK9 (Homo sapiens, UniProt P50750)

>  <assay endpoint>
IC50

>  <unit text>
µM

>  <numeric result>
0.36

$$$$
>  <molecule>
Cc1nc2c(s1)-c1nc(Nc3ccc(C(F)(F)F)cc3)ncc1CC2 [Cpd 2]

>  <system name>
Cyclin T - CDK9 (Homo sapiens, UniProt P50750)

>  <assay endpoint>
IC50

>  <unit text>
µM

>  <numeric result>
6.1

$$$$
>  <molecule>
Cc1nc2c(s1)-c1nc(Nc3ccc(N4CCOCC4)cc3)ncc1CC2 [Cpd 4]

>  <system name>
Cyclin T - CDK9 (Homo sapiens, UniProt P50750)

>  <assay endpoint>
IC50

>  <unit text>
µM

>  <numeric result>
0.52

$$$$

## Input Item: Cc1nc2c(s1)-c1nc(Nc3cccc([N+](=O)[O-])c3)ncc1CC2 [Cpd 1] Test system: Cyclin T - CDK9 (Homo sapiens, UniProt P50750) Read-out: IC50 Value: ?
## Output 0.008

###

Cyclin B - CDK1 (Homo sapiens, UniProt P06493) data, read-out log10 IC50
Sequence (P06493 whole entry): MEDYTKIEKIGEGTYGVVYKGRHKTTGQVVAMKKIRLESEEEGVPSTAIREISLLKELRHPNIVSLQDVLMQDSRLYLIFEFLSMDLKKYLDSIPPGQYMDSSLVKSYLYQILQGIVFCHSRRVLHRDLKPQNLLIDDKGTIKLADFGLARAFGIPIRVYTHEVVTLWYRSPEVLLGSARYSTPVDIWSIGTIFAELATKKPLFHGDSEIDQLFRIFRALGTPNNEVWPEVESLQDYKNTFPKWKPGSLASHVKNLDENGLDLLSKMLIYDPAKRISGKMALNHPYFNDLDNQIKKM
Sequence (P14635 whole entry partner): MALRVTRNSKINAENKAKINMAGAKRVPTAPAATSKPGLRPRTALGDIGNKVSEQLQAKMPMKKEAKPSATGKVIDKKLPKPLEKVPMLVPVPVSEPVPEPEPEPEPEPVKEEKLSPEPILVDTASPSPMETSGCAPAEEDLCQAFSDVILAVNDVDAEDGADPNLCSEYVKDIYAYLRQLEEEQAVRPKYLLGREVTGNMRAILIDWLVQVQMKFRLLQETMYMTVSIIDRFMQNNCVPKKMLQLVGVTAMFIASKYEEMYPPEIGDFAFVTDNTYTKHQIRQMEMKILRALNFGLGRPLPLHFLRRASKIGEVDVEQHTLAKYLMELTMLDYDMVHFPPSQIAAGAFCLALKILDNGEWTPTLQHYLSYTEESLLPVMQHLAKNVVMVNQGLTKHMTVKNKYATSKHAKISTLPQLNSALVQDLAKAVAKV
Record value = log10 of IC50 given in nM.

Here is how some compounds turned out for log10 IC50.
>  <compound>
Nc1nc2c(s1)-c1nc(Nc3ccccc3)ncc1CC2 [Cpd 13]

>  <system name>
Cyclin B - CDK1 (Homo sapiens, UniProt P06493)

>  <numeric result>
3.28

$$$$
>  <compound>
Cc1nc2c(s1)-c1nc(Nc3cccc(O)c3)ncc1CC2 [Cpd 3]

>  <system name>
Cyclin B - CDK1 (Homo sapiens, UniProt P06493)

>  <numeric result>
3.04

$$$$
>  <compound>
Cc1nc2c(s1)-c1nc(Nc3cccc([N+](=O)[O-])c3)ncc1CC2 [Cpd 1]

>  <system name>
Cyclin B - CDK1 (Homo sapiens, UniProt P06493)

>  <numeric result>
3.00

$$$$

## Input Item: Cc1nc2ccc3cnc(N(C)c4cccc([N+](=O)[O-])c4)nc3c2s1 [Cpd 10] Test system: Cyclin B - CDK1 (Homo sapiens, UniProt P06493) Read-out: log10 IC50 Value: ?
## Output 4.34

## Input Item: Nc1nc2c(s1)-c1nc(Nc3cccc([N+](=O)[O-])c3)ncc1CC2 [Cpd 14] Test system: Cyclin B - CDK1 (Homo sapiens, UniProt P06493) Read-out: log10 IC50 Value: ?
## Output 1.73

## Input Item: Cc1nc2c(s1)-c1nc(Nc3ccc(Cl)nc3)ncc1CC2 [Cpd 7] Test system: Cyclin B - CDK1 (Homo sapiens, UniProt P06493) Read-out: log10 IC50 Value: ?
## Output 1.76

###

Cyclin A - CDK2 (Homo sapiens, UniProt P24941) data, read-out IC50
The reply should be a number in nM, with the unit left off.

>  <chemical string>
Cc1nc2ccc3cnc(N(C)c4cccc([N+](=O)[O-])c4)nc3c2s1

>  <unit text>
nM

>  <IC50>
47000

$$$$

## Input Which IC50 value belongs to Cc1nc2c(s1)-c1nc(Nc3ccc(N(C)C)cc3)ncc1CC2 ?
## Output 58

## Input Which IC50 value belongs to Cc1nc2c(s1)-c1nc(Nc3ccc(N4CCOCC4)cc3)ncc1CC2 ?
## Output 910

## Input Which IC50 value belongs to Cc1nc2c(s1)-c1nc(Nc3cccc(O)c3)ncc1CC2 ?
## Output 2

## Input Which IC50 value belongs to Cc1nc2c(s1)-c1nc(Nc3ccc(O)cc3)ncc1CC2 ?
## Output 9

## Input Which IC50 value belongs to Cc1nc2c(s1)-c1nc(Nc3cccc([N+](=O)[O-])c3)ncc1CC2 ?
## Output 560

## Input Which IC50 value belongs to Nc1nc2c(s1)-c1nc(Nc3cccc([N+](=O)[O-])c3)ncc1CC2 ?
## Output 22

## Input Which IC50 value belongs to Cc1nc2ccc3cnc(Nc4ccccc4)nc3c2s1 ?
## Output 4300
